Tested on: SW948CPTH
Assay: cell proliferation assay, cross-resistance to topoisomerase I and II inhibitors
Format: cell-based, human
Conditions: Homo sapiens; read-out: Sensitivity expressed as IC50
recorded.metric: IC50 (µg/mL)
The answer is to be given in µg/mL; state only the numeric part.

Solved cases (3 shown):
Provide value of IC50 for this record tested with SW948CPTH: CC[C@@]1(O)C(=O)OCc2c1cc1n(c2=O)Cc2cc3ccccc3nc2-1
0.6

And the next one, CCc1c2c(nc3ccc(OC(=O)N4CCC(N5CCCCC5)CC4)cc13)-c1cc3c(c(=O)n1C2)COC(=O)[C@]3(O)CC ?
43.7

Continue with COc1cc([C@@H]2c3cc4c(cc3[C@@H](O[C@@H]3O[C@@H]5CO[C@@H](C)O[C@H]5[C@H](O)[C@H]3O)[C@H]3COC(=O)[C@H]23)OCO4)cc(OC)c1O [Etoposide]
0.9

Would you kindly look at the next entry?
Query the reported IC50 for SW948CPTH; item: CC1(C)CCC2=C(O1)c1ccccc1C(=O)C2=O
0.8

Reference source for all entries: patent US20070148710A1
